system: Trypanosoma brucei rhodesiense; assay: Ratio of IC50 for melasoprol-resistant Trypanosoma brucei rhodesiense STIB900 to IC50 for wild-type Trypanosoma brucei rhodesiense […]; assay type: functional
For each of the compounds below, state its Ratio IC50.
Could you keep your reply to the number by itself?

Per the reported Trypanosoma brucei rhodesiense data, N=C(N)c1ccc(-c2ccc(-c3ccc(C(=N)N)cc3)o2)cc1 [FURAMIDINE] has Ratio IC50 of 19.5

Considering `N=C(N)c1ccc(-c2ccc(-c3ccc(C(=N)N)cn3)o2)cc1` , its Ratio IC50 with Trypanosoma brucei rhodesiense was recorded as 12.4

Record for N=C(N)c1ccc(OCCCCCOc2ccc(C(=N)N)cc2)cc1 [PENTAMIDINE] under target or system Trypanosoma brucei rhodesiense: Ratio IC50 reported as 105.4

With Trypanosoma brucei rhodesiense as the test system, `N=C(N)c1ccc(-c2ccc(-c3ccc(C(=N)N)cn3)o2)nc1` showed Ratio IC50 of 10

Summary: Nc1nc(N)nc(Nc2ccc([As]3SCC(CO)S3)cc2)n1 (stereo not given) [MELARSOPROL] , Trypanosoma brucei rhodesiense, Ratio IC50 = 42
